system: Kentucky bluegrass; test: Turf grass selectivity, greenhouse pot test; type: in vivo, Poa pratensis; details: 100 g ai/ha, 2 weeks
Could you please report measured phytotoxicity (visual assessment 0-10) for the items listed next?
Just the number, please, no unit attached.

Exam item: Entry under review: COc1cc(OC)nc(NC(=O)NS(=O)(=O)c2ncccc2C(F)(F)F)n1 [Control chemical No. 2, Flazasulfuron, reference compound] . Reported phytotoxicity (visual assessment 0-10)?
Marked response: 10

Exam item: Entry under review: Cc1cc(C)nc(NC(=O)NS(=O)(=O)c2ccccc2C(O)C(C)F)n1 (stereo not shown) [Example 1] . Reported phytotoxicity (visual assessment 0-10)?
Marked response: 0

Exam item: Entry under review: CCOC(=O)c1cnn(C)c1S(=O)(=O)NC(=O)Nc1nc(OC)cc(OC)n1 [Control chemical No. 1, Pyrazosulfuron ethyl, reference compound] . Reported phytotoxicity (visual assessment 0-10)?
Marked response: 0

Exam item: Entry under review: COc1nc(C)nc(NC(=O)NS(=O)(=O)c2cscc2C2(CF)OCCO2)n1 [Example 2] . Reported phytotoxicity (visual assessment 0-10)?
Marked response: 10
